Measured IC50 of individual entries
Target: CDK13 (Homo sapiens (Human), UniProt Q14004)
Sequence (Q14004 whole entry, looked up): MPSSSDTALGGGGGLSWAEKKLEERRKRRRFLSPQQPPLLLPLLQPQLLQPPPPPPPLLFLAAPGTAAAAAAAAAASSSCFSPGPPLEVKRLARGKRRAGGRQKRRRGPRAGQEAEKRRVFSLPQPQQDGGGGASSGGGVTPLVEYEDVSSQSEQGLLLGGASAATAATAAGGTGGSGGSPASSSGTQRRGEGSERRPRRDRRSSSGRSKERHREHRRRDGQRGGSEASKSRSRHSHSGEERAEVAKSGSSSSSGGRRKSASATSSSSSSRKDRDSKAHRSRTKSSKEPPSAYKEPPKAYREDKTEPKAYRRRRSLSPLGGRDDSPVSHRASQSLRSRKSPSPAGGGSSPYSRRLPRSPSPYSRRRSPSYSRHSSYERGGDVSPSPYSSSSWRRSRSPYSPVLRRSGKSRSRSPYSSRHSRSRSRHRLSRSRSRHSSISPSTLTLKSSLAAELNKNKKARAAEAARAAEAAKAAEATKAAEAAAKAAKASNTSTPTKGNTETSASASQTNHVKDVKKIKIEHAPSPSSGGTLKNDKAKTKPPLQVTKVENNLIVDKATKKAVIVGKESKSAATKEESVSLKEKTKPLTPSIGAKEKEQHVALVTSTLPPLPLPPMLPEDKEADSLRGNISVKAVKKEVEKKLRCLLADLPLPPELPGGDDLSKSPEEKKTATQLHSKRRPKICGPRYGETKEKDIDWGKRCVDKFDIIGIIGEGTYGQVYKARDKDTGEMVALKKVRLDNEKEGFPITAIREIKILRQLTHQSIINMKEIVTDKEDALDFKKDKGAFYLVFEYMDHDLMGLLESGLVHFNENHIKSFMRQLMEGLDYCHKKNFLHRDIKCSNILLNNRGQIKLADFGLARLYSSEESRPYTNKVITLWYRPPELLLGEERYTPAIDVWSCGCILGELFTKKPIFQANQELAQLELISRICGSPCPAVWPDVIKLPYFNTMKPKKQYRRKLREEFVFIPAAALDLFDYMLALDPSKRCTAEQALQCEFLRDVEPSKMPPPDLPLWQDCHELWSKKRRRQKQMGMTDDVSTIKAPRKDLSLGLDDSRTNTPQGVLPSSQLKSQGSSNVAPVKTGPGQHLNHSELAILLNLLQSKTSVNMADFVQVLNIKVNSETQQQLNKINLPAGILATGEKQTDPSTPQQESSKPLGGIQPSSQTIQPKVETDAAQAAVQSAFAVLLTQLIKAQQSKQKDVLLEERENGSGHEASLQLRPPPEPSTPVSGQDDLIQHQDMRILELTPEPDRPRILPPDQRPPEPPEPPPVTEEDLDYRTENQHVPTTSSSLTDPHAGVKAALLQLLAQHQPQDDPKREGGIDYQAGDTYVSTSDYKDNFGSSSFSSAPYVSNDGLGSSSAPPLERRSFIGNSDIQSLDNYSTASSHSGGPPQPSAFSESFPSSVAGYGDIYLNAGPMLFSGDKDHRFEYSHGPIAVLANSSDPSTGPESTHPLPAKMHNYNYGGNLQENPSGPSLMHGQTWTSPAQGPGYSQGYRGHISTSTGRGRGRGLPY
Sequence (O75909 whole entry partner, looked up): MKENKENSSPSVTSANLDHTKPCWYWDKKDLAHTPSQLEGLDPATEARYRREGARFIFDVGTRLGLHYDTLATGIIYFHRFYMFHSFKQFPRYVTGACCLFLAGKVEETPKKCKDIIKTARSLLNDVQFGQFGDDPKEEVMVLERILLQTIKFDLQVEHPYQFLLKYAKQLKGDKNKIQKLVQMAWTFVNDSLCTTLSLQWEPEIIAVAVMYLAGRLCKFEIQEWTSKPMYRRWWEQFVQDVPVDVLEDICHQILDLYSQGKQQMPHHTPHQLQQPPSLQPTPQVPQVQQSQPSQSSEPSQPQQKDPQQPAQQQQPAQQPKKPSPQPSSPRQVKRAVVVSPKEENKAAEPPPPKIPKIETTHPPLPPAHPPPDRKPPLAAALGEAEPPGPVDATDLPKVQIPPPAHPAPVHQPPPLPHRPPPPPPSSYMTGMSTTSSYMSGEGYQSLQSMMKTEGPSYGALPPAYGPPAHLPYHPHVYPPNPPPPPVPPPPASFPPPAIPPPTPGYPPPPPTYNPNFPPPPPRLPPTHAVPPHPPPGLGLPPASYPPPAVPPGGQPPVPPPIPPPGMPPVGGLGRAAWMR
Assay: LANCE Ultra kinase assay, CDK13
Type: biochemical
Details: 30 nM enzyme, 60 min pre-incubation, ULight-4E-BP1 150 nM; read-out: CDK13 IC50
Protocol: The inhibitory activities of the test compound on the kinases were evaluated by LANCE Ultra assay, which was used for detecting ATP-dependent phosphorylation of a ULight-4E-BP1 (Thr37/Thr46) substrate peptide (150 nM). […] Time-resolved fluorescence (excitation, 320 nm; emission donor, 615 nm; emission acceptor, 665 nm) was monitored using an EnVision spectrophotometer (PerkinElmer). Readings were computed as (acceptor count/donor count)×1000. […]

C=CC(=O)Nc1cc(N(C(=O)NCc2ccccc2)[C@H]2CC[C@H](Nc3ccc(C#N)cn3)CC2)cnc1N1CCN(C)[C@@H](C)C1 = 15 to 50 nM
C=CC(=O)Nc1cc(N(C(=O)NCc2ccccc2)[C@H]2CC[C@H](Nc3ccc(C#N)cn3)CC2)ccc1Br = < 15 nM
C=CC(=O)Nc1cc(N(C(=O)NCc2ccccc2)[C@H]2CC[C@H](Nc3ccc(C#N)cn3)CC2)ccc1N(C)CCN(C)C = 50 to 500 nM

Can you share its IC50? I mean this molecule: `C=C(F)C(=O)Nc1cc(N(C(=O)NCc2ccccc2)[C@H]2CC[C@H](Nc3ccc(C#N)cn3)CC2)ccc1N1CCN(C)[C@@H](C)C1` 15 to 50 nM
